Assay: Maximum absorption wavelength (λmax) after color development, spectrophotometer MCPD3000
Assay type: physicochemical
Conditions: binder sheet (binder method); after color development
Description: • [1] Maximum Absorption Wavelength (λmax): The maximum absorption wavelength after color development, measured using a spectrophotometer (instantaneous multichannel photodetector MCPD3000) manufactured by Otsuka Electronics Co., Ltd. was used as an indicator for the color tone during the color development. • [2] […]
Provide the reported Maximum absorption wavelength of each item.
Please format your answer as a value with the unit trailing.

Compound	Maximum absorption wavelength
COc1ccc(C2(c3ccc(OC)c(OC)c3)C=Cc3c4c(c5cc(N6CCc7ccccc76)c(OC)cc5c3O2)-c2ccccc2C4(CCC(F)(F)F)CCC(F)(F)F)cc1 (stereo not drawn) [Formula (67A)]	527 nm

Give one value of Maximum absorption wavelength per listed compound.
1. COCCOCCOCCC1(CCOCCOCCOC)c2ccccc2-c2c1c1c(c3cc(OC)c(N4CCc5cc(F)ccc54)cc23)OC(c2ccc(OC)cc2)(c2ccc(OC)cc2)C=C1 [Formula (50A)]
2. COc1ccc(C2(c3ccc(OC)cc3)C=Cc3c4c(c5cc(N6CCCCC6)c(OC)cc5c3O2)-c2ccccc2C4(C)C)cc1 [Formula (E), reference compound]
3. COc1ccc(C2(c3ccc(N(c4ccccc4)c4ccccc4)cc3)C=Cc3c4c(c5cc(N6CCc7ccccc76)c(OC)cc5c3O2)-c2ccccc2C42CCC3(CCCCC3)CC2)cc1 (stereo not drawn) [Formula (57A)]
4. COc1ccc(C2(c3ccc(OC)cc3)C=Cc3c4c(c5cc(N6CCc7ccccc76)c(OC)cc5c3O2)-c2ccccc2C4(C)C)cc1 [Formula (28A)]
5. CCC1(CC)CCC2(CC1)c1cc(OC(F)(F)F)ccc1-c1c2c2c(c3cc(OC)c(N4CCc5ccccc54)cc13)OC(c1ccc(OC)cc1)(c1ccc(OCCCO[Si](C)(C)CC[Si](O[Si](C)(C)C)(O[Si](C)(C)C)O[Si](C)(C)C)cc1)C=C2 (stereo not drawn) [Formula (74A)]
6. CCCOc1ccc(C2(c3ccc(OC)cc3)C=Cc3c4c(c5cc(N6CCc7ccccc76)c(C)cc5c3O2)-c2ccc(-c3ccc(F)c(F)c3F)cc2C4(CCCCOC)CCCCOC)cc1F (stereo not drawn) [Formula (78A)]

["522 nm", "481 nm", "548 nm", "532 nm", "522 nm", "523 nm"]

Give one value of Maximum absorption wavelength per listed compound.
1. CCCOc1ccc(C2(c3ccc(OCCC)cc3)C=Cc3c4c(c5cc(N6CCc7ccccc76)c(OC)cc5c3O2)-c2ccc(-c3ccc(C)cc3)cc2C42CCCCCCC2)cc1 [Formula (35A)]
2. COCCCC1(CCCOC)c2ccccc2-c2c1c1c(c3cc(OC)c(N4CC(C)c5ccccc54)cc23)OC(c2ccc(OC)cc2)(c2ccc(OC)cc2)C=C1 (stereo not drawn) [Formula (39A)]

1. 531 nm
2. 533 nm

---

Provide the reported Maximum absorption wavelength (nm) of each item.
assay: Maximum absorption wavelength (λmax) after color development, spectrophotometer MCPD3000; format: physicochemical; settings: binder sheet (binder method), urethaneurea resin photochromic layer between polycarbonate sheets, 0.25 mmol per 100 parts by mass resin
Answers are plain numbers, in nm.

Give one value of Maximum absorption wavelength (nm) per listed compound.
1. CCCOc1ccc(C2(c3ccc(OCCC)cc3)C=Cc3c4c(c5cc(N(C)c6ccc(C)cc6)c(OC)cc5c3O2)-c2ccccc2C4(CCCCOC)CCCCOC)cc1
2. CCCCC1(CCCC)c2ccccc2-c2c1c1c(c3cc(OC)c(N(c4ccc(F)cc4)c4ccc(F)cc4)cc23)OC(c2ccc(OC)cc2)(c2ccc(OC)cc2)C=C1
3. CCCOc1ccc(C2(c3ccc(OCCC)cc3)C=Cc3c4c(c5cc(N(c6ccc(C)cc6)c6ccc(C)cc6)c(OC)cc5c3O2)-c2ccccc2C4(CCCCOCOC)CCCCOCOC)cc1

1. 503
2. 501
3. 521

---

Assay: 35°C color optical density (A35): absorbancy difference ε(240)-ε(0) after 240 s light irradiation at 35°C
Format: physicochemical
Details: binder sheet (binder method), 240 s irradiation
From the text: • [1] Maximum Absorption Wavelength (λmax): The maximum absorption wavelength after color development, measured using a spectrophotometer (instantaneous multichannel photodetector MCPD3000) manufactured by Otsuka Electronics Co., Ltd. was used as an indicator for the color tone during the color development. • [2] […]
Provide the reported A35 (-) of each item.

Compound	A35 (-)
COc1ccc(C2(c3ccc(OC)cc3)C=Cc3c4c(c5cc(N(c6ccccc6)c6ccccc6)c(OC)cc5c3O2)-c2ccccc2C4(C)C)cc1 [Example 2 Formula (30)]	1.07 -

Give one value of A35 (-) per listed compound.
1. COc1ccc(C2(c3ccc(OC)cc3)C=Cc3c4c(c5cc(N6CCCCC6)c(OC)cc5c3O2)-c2ccccc2C4(C)C)cc1 [Formula (E), reference compound]
2. CCCC1(CCC)c2ccccc2-c2c1c1c(c3cc(OC)c(N4CCOc5ccccc54)cc23)OC(c2ccc(OC)cc2)(c2ccc(OC)cc2)C=C1 [Example 10 Formula (59)]
3. CCCOc1ccc(C2(c3ccc(OCCC)cc3)C=Cc3c4c(c5cc(N(CCOC)c6ccccc6)c(OC)cc5c3O2)-c2ccccc2C42CCCCCCC2)cc1 [Example 6 Formula (47)]
4. CCCC1(CCC)c2ccccc2-c2c1c1c(c3cc(OC)c(N(C)c4ccccc4)cc23)OC(c2ccc(OC)cc2)(c2ccc(OC)cc2)C=C1 [Example 3 Formula (32)]
5. CCCOc1ccc(C2(c3ccc(OCCC)cc3)C=Cc3c4c(c5cc(N(c6ccc(C)cc6)c6ccc(C)cc6)c(OC)cc5c3O2)-c2ccccc2C4(CCCCOCOC)CCCCOCOC)cc1 [Example 14 Formula (71)]
6. COc1ccc(C2(c3ccc(OC)cc3)C=Cc3c4c(c5cc(N6CCc7ccccc7C6)c(OC)cc5c3O2)-c2ccccc2C4(C)C)cc1 [Formula (F), reference compound]

1.30 -
0.87 -
0.97 -
0.76 -
1.36 -
1.30 -

Give one value of A35 (-) per listed compound.
1. CCCC1(CCC)c2ccccc2-c2c1c1c(c3cc(OC)c(N(c4ccccc4)c4ccc(C)cc4)cc23)OC(c2ccc(OC)cc2)(c2ccc(OC)cc2)C=C1 [Example 13 Formula (68)]
2. CCCCOc1ccc(C2(c3ccc(OC)cc3)C=Cc3c4c(c5cc(N(C)c6ccccc6)c(OC)cc5c3O2)-c2ccc(-c3ccc(C(C)(C)C)cc3)cc2C4(CC)CC)cc1 (centres unmarked) [Example 45 Formula (94)]

1.09 -
0.88 -

Give one value of A35 (-) per listed compound.
1. COc1ccc(C2(c3ccc(OC)cc3)C=Cc3c4c(c5cc(N(C)c6ccccc6)c(OC)cc5c3O2)-c2ccccc2C4(C)C)cc1 [Example 1 Formula (28)]
2. CCCCC1(CCCC)c2ccccc2-c2c1c1c(c3cc(OC)c(N(c4ccc(F)cc4)c4ccc(F)cc4)cc23)OC(c2ccc(OC)cc2)(c2ccc(OC)cc2)C=C1 [Example 12 Formula (66)]

0.80 -
0.93 -

---

Provide the reported 23°C color fading half-life of each item.
test: 23°C color fading half-life τ1/2 after 240 s light irradiation; type: physicochemical
One number for each entry, in min.

Please review the following examples before continuing.
Compound	Value Unit	23°C color fading half-life
COCCCCC1(CCCCOC)c2ccccc2-c2c1c1c(c3cc(C)c(N(C)c4ccccc4)cc23)OC(c2ccc(C)cc2)(c2ccc(OC)cc2)C=C1 (centres unmarked) [Example 5 Formula (43)]	min	1.5
CCCC1(CCC)c2cc(C)ccc2-c2c1c1c(c3cc(OC)c(N(C)c4ccccc4)cc23)OC(c2ccc(OC)cc2)(c2ccc(OC)cc2)C=C1 [Example 18 Formula (81)]	min	1.63
CCCC1(CCC)c2ccccc2-c2c1c1c(c3cc(OC)c(N(c4ccccc4)c4ccccc4)cc23)OC(c2ccc(OC)cc2)(c2ccc(N3CCOCC3)cc2)C=C1 (centres unmarked) [Example 7 Formula (50)]	min	0.733
CCCCN(c1ccc(C(F)(F)F)cc1)c1cc2c3c(c4c(c2cc1OC)OC(c1ccc(C)cc1)(c1ccc(OC)cc1)C=C4)C1(CCCCCCCCCCC1)c1cc(OC)ccc1-3 (centres unmarked) [Example 54 Formula (123)]	min	2.92
CCCOc1ccc(C2(c3ccc(OC)cc3)C=Cc3c4c(c5cc(N(c6ccc(C(F)(F)F)cc6)c6ccc(C(F)(F)F)cc6)c(OC)cc5c3O2)-c2ccccc2C4(CCCCOC)CCCCOC)cc1 (centres unmarked) [Example 11 Formula (63)]	min	0.667

Give one value of 23°C color fading half-life per listed compound.
1. CCCC1(CCC)c2ccccc2-c2c1c1c(c3cc(OC)c(N(c4ccccc4)c4ccccc4)cc23)OC(c2ccc(C)cc2)(c2ccc(N(C)c3ccccc3)cc2)C=C1 (centres unmarked) [Example 22 Formula (89)]
2. CCCC1(CCC)c2ccccc2-c2c1c1c(c3cc(OC)c(N(C)c4ccccc4)cc23)OC(c2ccc(OC)cc2)(c2ccc(N(c3ccccc3)c3ccccc3)cc2)C=C1 (centres unmarked) [Example 21 Formula (87)]
3. CCCOc1ccc(C2(c3ccc(OC)cc3)C=Cc3c4c(c5cc(N6CCc7ccccc76)c(C)cc5c3O2)-c2ccccc2C4(CCC)CCC)cc1 (centres unmarked) [Formula (31A)]

[1.25, 1.62, 1.05]
